Sourced from patent US20150086555A1

assayed_system: recombinant soluble homotrimeric HA of A/chicken/Vietnam/NCVD-016/08 (H5N1) (Influenza A virus A/chicken/Vietnam/NCVD-016/2008(H5N1))
procedure_details: trimeric HA microarray, transfection supernatant set 5
test_context: remark: other sources report otherwise
# key: entry, value: Trimeric HA Binding: RLU
readout_name: Trimeric HA Binding: RLU (RLU)

[
  {
    "binder": "TCN-538 (3206_O17) (antibody, V domains shown) VH: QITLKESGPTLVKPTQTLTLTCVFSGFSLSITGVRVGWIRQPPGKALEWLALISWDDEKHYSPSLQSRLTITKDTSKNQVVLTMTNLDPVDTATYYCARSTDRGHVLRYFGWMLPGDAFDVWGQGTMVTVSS VL: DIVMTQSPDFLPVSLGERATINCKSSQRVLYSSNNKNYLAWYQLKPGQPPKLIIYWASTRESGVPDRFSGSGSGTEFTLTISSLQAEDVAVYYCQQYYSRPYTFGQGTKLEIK",
    "measurement": 2950
  },
  {
    "binder": "TCN-539 (5056_A08) (antibody, V domains shown) VH: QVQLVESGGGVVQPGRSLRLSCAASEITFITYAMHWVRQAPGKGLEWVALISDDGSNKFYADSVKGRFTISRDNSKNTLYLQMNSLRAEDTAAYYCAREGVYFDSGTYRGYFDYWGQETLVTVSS VL: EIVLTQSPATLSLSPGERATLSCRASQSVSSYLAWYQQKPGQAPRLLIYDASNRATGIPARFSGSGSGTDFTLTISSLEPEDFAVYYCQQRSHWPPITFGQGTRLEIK",
    "measurement": 3500
  },
  {
    "binder": "TCN-543 (5081_G23) (antibody, V domains shown) VH: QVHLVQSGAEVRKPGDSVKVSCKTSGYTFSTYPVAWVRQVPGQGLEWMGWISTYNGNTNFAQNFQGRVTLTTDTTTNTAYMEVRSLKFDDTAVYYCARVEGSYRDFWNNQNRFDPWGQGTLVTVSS VL: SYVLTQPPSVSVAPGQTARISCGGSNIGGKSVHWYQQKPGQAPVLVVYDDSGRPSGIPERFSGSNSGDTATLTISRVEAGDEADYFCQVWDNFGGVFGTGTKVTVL",
    "measurement": 5880
  },
  {
    "binder": "TCN-540 (5060_F05) (antibody, V domains shown) VH: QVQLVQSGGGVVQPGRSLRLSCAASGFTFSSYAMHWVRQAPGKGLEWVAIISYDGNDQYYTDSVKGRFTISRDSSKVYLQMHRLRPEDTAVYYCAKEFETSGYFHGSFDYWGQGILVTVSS VL: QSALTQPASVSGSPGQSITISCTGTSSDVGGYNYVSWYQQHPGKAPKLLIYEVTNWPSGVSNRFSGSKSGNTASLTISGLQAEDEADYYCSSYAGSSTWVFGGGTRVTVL",
    "measurement": 1510
  }
]
